# testDetails: Oral availability in Wistar Han rat at 1 mg/kg at 7 to 24 hrs by LC-MS/MS analysis
# Type: ADME, organism-based
# conditionDescription: in vivo, time 7-24 hrs
recordedEndpoint: bioavailability (%)

Known bioavailability results, listed for orientation:
>>> reportedvalue("Cc1cc(C)n(-c2cccc(C(CC(=O)O)CN3CC(C(F)(F)CCc4ccc5c(n4)NCCC5)C3)c2)n1 (racemic)")
3
>>> reportedvalue("COc1ncc(C(CC(=O)O)CN2CC(C(F)(F)CCc3ccc4c(n3)NCCC4)C2)cc1C (racemic)")
57
>>> reportedvalue("COc1cc(C(CC(=O)O)CN2CC(C(F)(F)CCc3ccc4c(n3)NCCC4)C2)ccc1F (racemic)")
79
>>> reportedvalue("COc1ccc(F)c(C(CC(=O)O)CN2CC(C(F)(F)CCc3ccc4c(n3)NCCC4)C2)c1 (racemic)")
91
>>> reportedvalue("COc1cc([C@H](CC(=O)O)CN2CC(C(F)(F)CCc3ccc4c(n3)NCCC4)C2)ccc1F")
94

I = COCCOc1cccc([C@H](CC(=O)O)CN2CC[C@@](F)(CCc3ccc4c(n3)NCCC4)C2)c1
II = COCCOc1cccc([C@H](CC(=O)O)CN2CC(C(F)(F)CCc3ccc4c(n3)NCCC4)C2)c1
[Q] Lower value of bioavailability belongs to which: I or II ? Please reply using the label of the selected record.
[A] II
(II: 17%, I: 93%)

###

# testDetails: in vitro
# conditionDescription: PAMPA
recordedEndpoint: Papp (×10⁻⁶ cm/s)

Known Papp results, listed for orientation:
>>> reportedvalue("Cc1cc(C)n(-c2cccc(C(CC(=O)O)CN3CC(C(F)(F)CCc4ccc5c(n4)NCCC5)C3)c2)n1 (racemic)")
13
>>> reportedvalue("COCCOc1cccc([C@@H](CC(=O)O)CN2CC(C(F)(F)CCc3ccc4c(n3)NCCC4)C2)c1")
3.2
>>> reportedvalue("O=C(O)CC(CN1CC(C(F)(F)CCc2ccc3c(n2)NCCC3)C1)c1ccnc(OC2CC2)c1 (racemic)")
10.4

P = O=C(O)CC(CN1CC(C(F)(F)CCc2ccc3c(n2)NCCC3)C1)c1cccc(O[C@@H]2CCOC2)c1 (mixture of isomers)
Q = O=C(O)CC(CN1CC(C(F)(F)CCc2ccc3c(n2)NCCC3)C1)c1cccc2c1OCC2 (racemic)
[Q] Endpoint returns whichever of P and Q has the numerically higher Papp. Please reply using the label of the selected record.
[A] Q

###

# testDetails: AUC in Wistar Han rat at 1 mg/kg, po at 7 to 24 hrs by LC-MS/MS analysis
# Assay type: ADME, organism-based
# conditionDescription: in vivo, time 7-24 hrs
recordedEndpoint: AUC (ng·h/mL)

Known AUC results, listed for orientation:
>>> reportedvalue("COc1cc([C@H](CC(=O)O)CN2CC(C(F)(F)CCc3ccc4c(n3)NCCC4)C2)ccc1F")
881
>>> reportedvalue("COc1ccc(F)c(C(CC(=O)O)CN2CC(C(F)(F)CCc3ccc4c(n3)NCCC4)C2)c1 (racemic)")
2460
>>> reportedvalue("COc1cc(C(CC(=O)O)CN2CC(C(F)(F)CCc3ccc4c(n3)NCCC4)C2)ccc1F (racemic)")
1370

A = Cc1cc(C)n(-c2cccc(C(CC(=O)O)CN3CC(C(F)(F)CCc4ccc5c(n4)NCCC5)C3)c2)n1 (racemic)
B = COc1ncc(C(CC(=O)O)CN2CC(C(F)(F)CCc3ccc4c(n3)NCCC4)C2)cc1C (racemic)
C = COCCOc1cccc([C@H](CC(=O)O)CN2CC(C(F)(F)CCc3ccc4c(n3)NCCC4)C2)c1
[Q] Hey, quick one: sort these by AUC, low to high? # format: label list in the order the request specifies
[A] A, C, B

Where do these numbers come from? They come from ChEMBL document CHEMBL6083250.
